Hey, just so you know, these numbers are from patent US20240217917A1.

Assay: Photolysis of compounds 1-5, 125 W medium pressure mercury vapour lamp, conversion by 1H-NMR
Format: physicochemical
Conditions: pH 13; 2 hours irradiation; acetonitrile and water (7:3); medium pressure mercury lamp
Description: Following the procedure by Wan and Muralidharan (Wan, P.; Muralidharan, S. J. Am. Chem. Soc. 1988, 110 (13), 4336-4345) aminol 1 (compound 1) was photolysed in acetonitrile and water (7:3, v:v) at the appropriate pH using a 125 W medium pressure mercury vapour lamp. […] 2 hours Following liquid-liquid extraction with DCM, all reaction mixtures were analysed with ^1H-NMR spectroscopy. […]
quantity-name: conversion after photolysis (%)

As a guide, the following entries are already answered.
[[record]]
compound = "O=[N+]([O-])c1cccc(CC(O)CNc2ccccc2)c1 (centres unmarked)"
result_number = 56

[[record]]
compound = "O=C(NCC(O)CNc1ccc([N+](=O)[O-])cc1)C(Cl)Cl (centres unmarked)"
result_number = 100

[[record]]
compound = "O=[N+]([O-])c1cccc(NCC(O)Cc2ccccc2)c1 (centres unmarked)"
result_number = 17


(a) O=[N+]([O-])c1ccc(NCC(O)Cc2ccccc2)cc1 (centres unmarked)
(b) O=[N+]([O-])c1ccc(CC(O)CNc2ccccc2)cc1 (centres unmarked)
Hi, I'm comparing two records. Which one has the lower conversion after photolysis, a or b ? Provide the label of your selected option as the answer.
b
(b: 40%, a: 100%)
